system: NCI-H1876 complex spheroid viability; test: Anticancer human tumor NCI-H1876 cell line growth inhibition [LSD1]; settings: second compound 1 µM; first compound 0.00949 µM; active compounds read low;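 also: spheroids exposed to compounds for one week before readout; 100% = DMSO vehicle-treated spheroids so lower means fewer viable cells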
measureName: viability, T/C (%)
The answer is to be given in %; state only the numeric part.

- compound: "CCN(c1cc(-c2ccc(CN3CCOCC3)cc2)cc(C(=O)NCc2c(C)cc(C)[nH]c2=O)c1C)C1CCOCC1 + NC1CC1c1ccc(-c2cccc(O)c2)cc1"
  assayResult: 111

Alright, here's another compound for you.
Short answer for COc1cc(C2c3cc4c(cc3C(OC3OC5COC(C)OC5C(O)C3O)C3COC(=O)C23)OCO4)cc(OC)c1O (stereo not drawn) + NC1CC1c1ccc(-c2cccc(O)c2)cc1 : viability, T/C was 92

---

system: NCI-H1876 complex spheroid viability; assay: Anticancer human tumor NCI-H1876 cell line growth inhibition [LSD1]; conditions: second compound 1 µM; first compound 0.00949 µM; active compounds read low;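 also: spheroids exposed to compounds for one week before readout; 100% = DMSO vehicle-treated spheroids so lower means fewer viable cells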
The following compounds are shown together with reported viability, T/C values.
The answer is to be given in %; state only the numeric part.

- compound: "Nc1ncn(C2CC(O)C(CO)S2)c(=O)n1 (stereo unspecified) + NC1CC1c1ccc(-c2cccc(O)c2)cc1"
  endpointUnit: "%"
  viability, T/C: 103
- compound: "Nc1ccccc1NC(=O)c1ccc(CNC(=O)OCc2cccnc2)cc1 + NC1CC1c1ccc(-c2cccc(O)c2)cc1"
  endpointUnit: "%"
  viability, T/C: 85.1
- compound: "CCN(c1cc(-c2ccc(CN3CCOCC3)cc2)cc(C(=O)NCc2c(C)cc(C)[nH]c2=O)c1C)C1CCOCC1 + NC1CCC(NC2CC2c2ccccc2)CC1"
  endpointUnit: "%"
  viability, T/C: 104

Short answer for O=C(C=Cc1cccc(S(=O)(=O)Nc2ccccc2)c1)NO + NC1CC1c1ccc(-c2cccc(O)c2)cc1 : viability, T/C was 114

Short answer for Nc1ccn(C2OC(CO)C(O)C2(F)F)c(=O)n1 (stereo unspecified) + NC1CCC(NC2CC2c2ccccc2)CC1 : viability, T/C was 30.3

Short answer for NS(=O)(=O)OCC1CC(n2ccc3c(NC4CCc5ccccc54)ncnc32)CC1O (stereo unspecified) + NC1CCC(NC2CC2c2ccccc2)CC1 : viability, T/C was 83.5

Entry source: PubChem BioAssay AID1918957
